test system: T1, alpha-s1 casein from Bos taurus
T1 chain: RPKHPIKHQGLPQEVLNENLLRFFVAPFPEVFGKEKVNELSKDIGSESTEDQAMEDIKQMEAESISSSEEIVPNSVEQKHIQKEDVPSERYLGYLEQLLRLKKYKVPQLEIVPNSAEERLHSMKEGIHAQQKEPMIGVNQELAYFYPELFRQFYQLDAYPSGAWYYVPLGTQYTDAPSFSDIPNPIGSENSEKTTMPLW
parameter: αs1-I CN, 6 hours, 11° C. (Volume)

1) camel chymosin variant #141 (F223N) (protein) GKVAREPLTSYLDSQYFGKIYIGTPPQEFTVVFDTGSSDLWVPSIYCKSNVCKNHHRFDPRKSSTFRNLGKPLSIHYGTGSMEGFLGYDTVTVSNIVDPNQTVGLSTEQPGEVFTYSEFDGILGLAYPSLASEYSVPVFDNMMDRHLVARDLFSVYMDRNGQGSMLTLGAIDPSYYTGSLHWVPVTLQQYWQFTVDSVTINGVAVACVGGCQAILDTGTSVLNGPSSDILKIQMAIGATENRYGEFDVNCGNLRSMPTVVFEINGRDYPLSPSAYTSKDQGFCTSGFQGDNNSELWILGDVFIREYYSVFDRANNRVGLAKAI | 2.57e+07
2) camel chymosin variant #142 (F223Q) (protein) GKVAREPLTSYLDSQYFGKIYIGTPPQEFTVVFDTGSSDLWVPSIYCKSNVCKNHHRFDPRKSSTFRNLGKPLSIHYGTGSMEGFLGYDTVTVSNIVDPNQTVGLSTEQPGEVFTYSEFDGILGLAYPSLASEYSVPVFDNMMDRHLVARDLFSVYMDRNGQGSMLTLGAIDPSYYTGSLHWVPVTLQQYWQFTVDSVTINGVAVACVGGCQAILDTGTSVLQGPSSDILKIQMAIGATENRYGEFDVNCGNLRSMPTVVFEINGRDYPLSPSAYTSKDQGFCTSGFQGDNNSELWILGDVFIREYYSVFDRANNRVGLAKAI | 2.55e+07
3) camel chymosin variant #145 (F223I) (protein) GKVAREPLTSYLDSQYFGKIYIGTPPQEFTVVFDTGSSDLWVPSIYCKSNVCKNHHRFDPRKSSTFRNLGKPLSIHYGTGSMEGFLGYDTVTVSNIVDPNQTVGLSTEQPGEVFTYSEFDGILGLAYPSLASEYSVPVFDNMMDRHLVARDLFSVYMDRNGQGSMLTLGAIDPSYYTGSLHWVPVTLQQYWQFTVDSVTINGVAVACVGGCQAILDTGTSVLIGPSSDILKIQMAIGATENRYGEFDVNCGNLRSMPTVVFEINGRDYPLSPSAYTSKDQGFCTSGFQGDNNSELWILGDVFIREYYSVFDRANNRVGLAKAI | 1.91e+07
4) camel chymosin variant #152 (D290G) (protein) GKVAREPLTSYLDSQYFGKIYIGTPPQEFTVVFDTGSSDLWVPSIYCKSNVCKNHHRFDPRKSSTFRNLGKPLSIHYGTGSMEGFLGYDTVTVSNIVDPNQTVGLSTEQPGEVFTYSEFDGILGLAYPSLASEYSVPVFDNMMDRHLVARDLFSVYMDRNGQGSMLTLGAIDPSYYTGSLHWVPVTLQQYWQFTVDSVTINGVAVACVGGCQAILDTGTSVLFGPSSDILKIQMAIGATENRYGEFDVNCGNLRSMPTVVFEINGRDYPLSPSAYTSKDQGFCTSGFQGGNNSELWILGDVFIREYYSVFDRANNRVGLAKAI | 2.18e+07
